# subject-of-test: T1, recombinant human BCMA, in house material (human, UniProt Q02223 4-53, limits assumed)
# T1 construct: also called Human in house BCMA; In house human BCMA
# procedure-summary: ProteOn SPR run 1, antibody captured on Protein A, 25C
Overview of reported Kd across a group of binders:
quantity-name: Kd (nM)

INSERT INTO results (binder, quantity_name, unit_of_measure, value) VALUES
  ('S307118G03 humanised H2L0 (antibody, human IgG1, kappa, V domains shown, Humanised, human IgG1 kappa) VH: QVQLVQSGAEVKKPGSSVKVSCKASGYTFTDYYMKWVRQAPGQGLEWMGEIYPNNGGITYNQKFKGRVTITADKSTSTAYMELSSLRSEDTAVYYCANGYEFVYWGQGTLVTVSS VL: DIQMTQSPSSLSASVGDRVTITCSASQGISNYLNWYQQKPGKAPKLLIYYTSSLHSGVPSRFSGSGSGTDFTLTISSLQPEDFATYYCQQYSKLPWTFGQGTKLEIKR', 'Kd', 'nM', 6.36),
  ('CA8 humanised J2M2 (antibody, human IgG1, kappa, V domains shown, Humanised CA8, heavy chain J2 with light chain M2, human IgG1 kappa; also called CA8 J2M2) VH: QVQLVQSGAEVKKPGSSVKVSCKASGYTFTNYWMHWVRQAPGQGLEWMGATYRGHSDTYYNQKFKGRVTITADKSTSTAYMELSSLRSEDTAVYYCTRGAIYNGYDVLDNWGQGTLVTVSS VL: DIQLTQSPSSLSASVGDRVTITCSASQDISNYLNWYQQKPGKAPELVIYYTSNLHSGVPSRFSGSGSGTDYTLTISSLQPEDFATYYCQQYRKLPWTFGQGTKLEIKR', 'Kd', 'nM', 0.482),
  ('CA8 humanised J1M2 (antibody, human IgG1, kappa, V domains shown, Humanised CA8, heavy chain J1 with light chain M2, human IgG1 kappa; also called CA8 J1M2) VH: QVQLVQSGAEVKKPGSSVKVSCKASGYTFTNYWMHWVRQAPGQGLEWMGATYRGHSDTYYNQKFKGRVTITADKSTSTAYMELSSLRSEDTAVYYCARGAIYNGYDVLDNWGQGTLVTVSS VL: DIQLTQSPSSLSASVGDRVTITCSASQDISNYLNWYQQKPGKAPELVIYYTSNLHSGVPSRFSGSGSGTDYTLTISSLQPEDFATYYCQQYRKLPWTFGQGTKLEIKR', 'Kd', 'nM', 1.14);
